Data provenance is the supplement of paper PMC10981050.

Measured cell viability by item
# Test system: K562;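 further: after 48 h exposure read by CellTiter-Glo luminescence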
# experimental_details: cell viability relative to vehicle control; higher = less cytotoxic
# reported_conditions: 10 µM; SRSF2 genotype: SRSF2 wt/wt
outcome_measure: cell viability (%)

compound: CCOC(=O)CC(=O)N1CCSC1COc1ccccc1OC (stereo unspecified)
target_of_assay: K562;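 further: after 48 h exposure read by CellTiter-Glo luminescence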
observed_value: 97.3
--
compound: CC[C@H](C)C(=O)O[C@H]1C[C@H](O)C=C2C=C[C@H](C)[C@H](CC[C@@H](O)C[C@@H](O)CC(=O)O)[C@H]21 [Pravastatin sodium]
target_of_assay: K562;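 further: after 48 h exposure read by CellTiter-Glo luminescence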
observed_value: 92.3
--
compound: Cn1c(-c2ccccc2C(F)(F)F)nnc1C12CCC(c3noc(C4CC(F)(F)C4)n3)(CC1)CC2
target_of_assay: K562;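 further: after 48 h exposure read by CellTiter-Glo luminescence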
observed_value: 84.7
--
compound: O=C(O)c1ccc2c3c1cccc3c(=O)n1c3ccccc3nc21
target_of_assay: K562;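 further: after 48 h exposure read by CellTiter-Glo luminescence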
observed_value: 102
--
compound: O=C(O)c1ccc(-c2ccc(C=C3SC(=S)N(Cc4ccccc4)C3=O)o2)cc1
target_of_assay: K562;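 further: after 48 h exposure read by CellTiter-Glo luminescence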
observed_value: 82.9
--
compound: CC[C@H](C)C(=O)O[C@H]1C[C@@H](C)C=C2C=C[C@H](C)[C@H](CC[C@@H]3C[C@@H](O)CC(=O)O3)[C@H]21
target_of_assay: K562;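 further: after 48 h exposure read by CellTiter-Glo luminescence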
observed_value: 68.8
--
compound: N#Cc1cc(-c2n[nH]c(-c3ccncc3)n2)ccn1
target_of_assay: K562;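 further: after 48 h exposure read by CellTiter-Glo luminescence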
observed_value: 94
--
compound: O=c1ccc2cc(O)ccc2o1 [6-Hydroxycoumarin]
target_of_assay: K562;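 further: after 48 h exposure read by CellTiter-Glo luminescence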
observed_value: 102
--
compound: CCC(=O)NS(=O)(=O)c1ccc(-c2c(-c3ccccc3)noc2C)cc1 [Parecoxib Sodium]
target_of_assay: K562;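 further: after 48 h exposure read by CellTiter-Glo luminescence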
observed_value: 100
--
compound: NC1(Cc2ccc(Cl)cc2)CCN(c2ncnc3[nH]ccc23)CC1
target_of_assay: K562;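 further: after 48 h exposure read by CellTiter-Glo luminescence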
observed_value: 50.8
--
compound: COc1ccc(C[C@@H]2c3cc(Oc4cc(C[C@@H]5c6cc(O)c(OC)cc6CCN5C)ccc4O)c(OC)cc3CCN2C)cc1
target_of_assay: K562;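 further: after 48 h exposure read by CellTiter-Glo luminescence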
observed_value: 61.2
